Values compiled from patent US10005829B2.

Target: T1, APJ receptor (human, UniProt P35414 1-380)
T1 sequence (looked up): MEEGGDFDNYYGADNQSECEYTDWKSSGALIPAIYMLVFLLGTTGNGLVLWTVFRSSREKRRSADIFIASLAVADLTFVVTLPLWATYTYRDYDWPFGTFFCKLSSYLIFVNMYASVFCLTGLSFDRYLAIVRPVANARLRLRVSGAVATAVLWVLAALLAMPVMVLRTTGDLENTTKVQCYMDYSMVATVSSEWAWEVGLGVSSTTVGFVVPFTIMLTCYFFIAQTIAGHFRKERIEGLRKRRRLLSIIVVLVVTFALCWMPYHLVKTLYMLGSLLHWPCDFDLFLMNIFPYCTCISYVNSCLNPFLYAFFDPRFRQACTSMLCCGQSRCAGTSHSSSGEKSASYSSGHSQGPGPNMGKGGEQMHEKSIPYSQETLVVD
Assay: cell-based or functional assay
[ ]: non-standard residue; d: D form. Cha = N[C@@H](CC1CCCCC1)C(=O)O; pGlu = O=C1CC[C@@H](C(=O)O)N1; dNle = CCCC[C@@H](N)C(=O)O; dNva = CCC[C@@H](N)C(=O)O
measurement_label: hAPJ Ca^2+ Flux EC50 (nM)
// units = nM; emit number, no label

Use the examples below as a reference point.
1. ERPRLAHKGXLAF (pE (pyroglutamic acid) at 1; D-Ala at 6; Pip (pipecolic acid) at 10; D-Nle at 11; D-Ala at 12; D-Phe at 13) [pE-R-P-R-L-a-H-K-G-Pip-nle-a-f-OH]; 2.3
2. [pGlu]RPR[Cha][dNva]HKGP[dNle][dA][dF]-OH (SMILES CCCC[C@@H](NC(=O)[C@@H]1CCCN1C(=O)CNC(=O)[C@H](CCCCN)NC(=O)[C@H](Cc1c[nH]cn1)NC(=O)[C@@H](CCC)NC(=O)[C@H](CC1CCCCC1)NC(=O)[C@H](CCCNC(=N)N)NC(=O)[C@@H]1CCCN1C(=O)[C@H](CCCNC(=N)N)NC(=O)[C@@H]1CCC(=O)N1)C(=O)N[C@H](C)C(=O)N[C@H](Cc1ccccc1)C(=O)O) [pE-R-P-R-Cha-nva-H-K-G-P-nle-a-f-OH]; 9.4

Here is another binder to look at.
Request: Name the recorded hAPJ Ca^2+ Flux EC50 of the binder listed here: [pGlu]RPRL[dD]HKGP[dNle][dA][dF]-OH (SMILES CCCC[C@@H](NC(=O)[C@@H]1CCCN1C(=O)CNC(=O)[C@H](CCCCN)NC(=O)[C@H](Cc1c[nH]cn1)NC(=O)[C@@H](CC(=O)O)NC(=O)[C@H](CC(C)C)NC(=O)[C@H](CCCNC(=N)N)NC(=O)[C@@H]1CCCN1C(=O)[C@H](CCCNC(=N)N)NC(=O)[C@@H]1CCC(=O)N1)C(=O)N[C@H](C)C(=O)N[C@H](Cc1ccccc1)C(=O)O) [pE-R-P-R-L-d-H-K-G-P-nle-a-f-OH]
Response: 7.7
